tested.system: Dual specificity protein kinase CLK4 (Homo sapiens)
Sequence (Q9HAZ1 whole entry): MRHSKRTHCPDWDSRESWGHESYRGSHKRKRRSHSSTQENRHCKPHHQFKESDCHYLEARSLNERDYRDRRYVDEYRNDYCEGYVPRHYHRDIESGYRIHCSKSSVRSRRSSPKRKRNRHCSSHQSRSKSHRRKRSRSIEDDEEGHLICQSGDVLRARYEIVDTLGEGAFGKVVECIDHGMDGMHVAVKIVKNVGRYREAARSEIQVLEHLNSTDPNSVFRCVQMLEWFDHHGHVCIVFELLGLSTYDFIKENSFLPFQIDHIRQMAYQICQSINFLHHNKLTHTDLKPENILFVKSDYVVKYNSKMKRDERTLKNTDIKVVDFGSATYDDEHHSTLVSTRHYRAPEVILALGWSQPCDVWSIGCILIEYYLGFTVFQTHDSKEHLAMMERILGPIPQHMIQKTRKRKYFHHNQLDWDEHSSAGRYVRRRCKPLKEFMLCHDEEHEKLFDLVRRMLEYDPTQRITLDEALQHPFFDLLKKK
observable: pIC50
The read-out pIC50 is expressed as -log10 of concentration in moles per litre.

Name the recorded pIC50 of Cc1ccc2c(-c3ccc4ncnc(N[C@H](CO)c5ccccc5)c4c3)c[nH]c2n1 , assay system Dual specificity protein kinase CLK4 (Homo sapiens).
7.41

###

assay.comment: Cmax in Sprague-Dawley rat at 2 mg/kg,iv measured upto 24 hrs by LC-MS/MS analysis
Assay type: ADME, organism-based
condition.info: in vivo
observable: Cmax (ng/mL)
Just the number in ng/mL, nothing appended.

Using known records, supply Cmax for Cc1ccc2c(-c3ccc4ncnc(N[C@H](CO)c5ccccc5)c4c3)c[nH]c2n1
272
